Recorded values, source PubChem BioAssay (NCI).

System: SW-620 colon
assay: NCI-60 one-dose screen, 48 h (100 = growth as untreated, 0 = no growth, -100 = all killed)
condition.label: 10 µM unless noted
The panel holds about 83,000 compounds, 20% with a hit somewhere; the sample as a whole holds those more often.
Entries and their growth values follow.

| compound | growth [%] |
| --- | --- |
| Fc1ccc(C2=NN(c3ccccc3)C(c3sc(N(CCCl)CCCl)nc3Cl)C2)cc1 (stereo not drawn) | 84.4 |
| NC(=O)OCC(CO)(c1ccccc1)c1ccccc1 | 107 |
| COc1ccc(C2SCC(=O)Nc3c2c(C)nn3-c2nc3ccc(C)cc3s2)cc1O (stereo not drawn) | 28.1 |
| Oc1ccccc1OB(Oc1ccccc1O)N(CCCl)CCCl | 82.9 |
| CCN1CC2(CN(CC)C1=S)C(=O)NC(=O)NC2=O | 97.4 |
| O=C(/C=C/c1ccccc1)N[C@@H](CO)Cc1cnc[nH]1 | 106 |
| N#CC1=C(N)Oc2cc3c(cc2C1c1cccs1)OCO3 (stereo not drawn) | 26.3 |
| CC(C)(C)[Si](C)(C)OC1[C@@H](O[Si](C)(C)C(C)(C)C)[C@@H](CNC(=O)NC(=O)CF)O[C@H]1n1cnc2c(NC(=O)Nc3ccccc3)ncnc21 (stereo partly drawn) | 33.8 |
| C[C@]12CC[C@@H]3C4=C(CC[C@H]3[C@@H]1CC[C@@H]2O)CC(=O)CC4 | 102 |
| CCC(C)[C@H]1O[C@]2(C=C[C@@H]1C)C[C@@H]1C[C@@H](C/C=C(\C)[C@@H](OC3C[C@H](OC)C(O[C@H]4C[C@H](OC)[C@@H](O)[C@H](C)O4)[C@H](C)O3)[C@@H](C)/C=C/C=C3\CO[C@@H]4[C@H](O)C(C)=C[C@@H](C(=O)O1)[C@]34O)O2 (stereo partly drawn) | -72 |
| O=C(CC1(O)C(=O)Nc2ccc(F)cc21)c1ccc(C(=O)NCC2CCC3(CC2)OOC2(CCCCC2)OO3)cc1 (stereo not drawn) | 61.1 |
| ClCCN(CCCl)c1ccc(C=NCCc2c[nH]c3ccccc23)cc1 | 84.4 |
| Nc1cccc2c1Oc1ccccc1O2 | 107 |
| N#[N+]c1nc2nc(N)[nH]c(=O)c2[nH]1 | 97.9 |
| C=CCN1C(=O)C(CC)(CCC(C)C)C(=O)NC1=S (stereo not drawn) | 104 |
| Cc1cc(NC(=O)CCc2ccc(N3C(N)=NC(N)=NC3(C)C)cc2)ccc1S(=O)(=O)F | 23.1 |
| c1ccc(CCN2CCCCC2Cc2ccccc2)cc1 (stereo not drawn) | 107 |
| Oc1ccc2c3c1O[C@H]1c4[nH]c5ccccc5c4C[C@@]4(O)C(C2)N(CC2CC2)CC[C@]314 | 99.9 |
| CCCCCCCCCCCCOc1ccc(C(=O)Oc2ccc(CSP3(=O)OCC4OC(n5cnc6c(N)ncnc65)C(F)C4OP(=O)(O)OCC4OC(n5ccc(=O)[nH]c5=O)C(F)C4O3)cc2)cc1 (stereo not drawn) | 118 |
| C=CCc1ccc(OC(=O)Cc2ccccc2)c(OC)c1 | 106 |
| COc1ccc(CN2CCN(Cc3ccccc3)CC2)c(O)c1 | 98.5 |
| CCC(CO)NC1CCCCC1 (stereo not drawn) | 34.6 |
| CCC[CH2][Sn]([CH2]CCC)([CH2]CCC)[O]C(=O)CC | -84.8 |
| CC1(C)N=C(N)N=C(N)N1c1ccc(CNC(=O)Nc2ccc(S(=O)(=O)F)c(Cl)c2)c(Cl)c1 | 12.5 |
| [Cl][Hg][n]1cnc2c(Cl)c(Cl)c(Cl)cc21 | 114 |
| NS(=O)(=O)c1nc[nH]c1[N+](=O)[O-] | 107 |
| O=C(NCc1ccc([N+](=O)[O-])cc1)Nc1ccc(S(=O)(=O)F)cc1 | 91.8 |
| CCC[CH2][Sn]1([CH2]CCC)[O]C(=O)c2cccc([N+](=O)[O-])c2C(=O)[O]1 | -54.6 |
| CCOc1cc(/C=N\Nc2nnc(C)n2N)c(C)cc1N(CCCl)CCCl | 10.4 |
| CNC(=O)Oc1cccc(N(C)C)c1 | 104 |
| O=C(O)CC(Br)C(=O)CBr (stereo not drawn) | 103 |
| O=C(C(=O)N1CCCC1)c1cn(CCCCCn2cc(C(=O)C(=O)N3CCCC3)c3ccccc32)c2ccccc12 | 91.9 |
| NCCc1cc(O)c(O)cc1O | 109 |
